inhibition overview
# assay_system: Major prion protein (Homo sapiens)
# method_description: reduces human prion protein on the cell surface, primary screen, cell-based, TR-FRET (AID 720596); note: 0% = median of the test wells and 100% = reference compound wells
# recorded_conditions: cell surface PrPC, TR-FRET read-out; at 13.8 µM; stronger effect = higher value
Hit rate of the full screen: of about 370,000 compounds, about 1,600 (0.43%) were called active. For the sample, actives were picked, then their nearest neighbours and some compounds at random.
# output: bare number, implied unit %

[
  {
    "compound": "COc1ccc(CCNC(=O)COc2ccc3c(c2)OCO3)cc1",
    "inhibition (%)": -3.21
  }
]

Look up inhibition: COC(=O)C(c1ccccc1)N1CCCCCC1 (stereo not drawn)
-4.88

Entry under review: COc1cc(OC)c(C(=O)OC(C)C(=O)Nc2cc(C(F)(F)F)ccc2Cl)cc1OC (stereo not drawn) . Reported inhibition?
-3.19

What does the data say about its inhibition? Entry: CCOC(=O)C1CCN(C(=O)C2CCCN(S(=O)(=O)c3ccc(OC)c(Cl)c3)C2)CC1 (stereo not drawn)
-3.34

Give the measured inhibition of O=C(COc1ccc2ccc(=O)oc2c1)NCC(O)c1ccccc1 (stereo not drawn) .
-8.2

Suppose we examine the compound COC(=O)c1ccc2nc(-c3cccc(Br)c3)c(Cc3ccc(OC)cc3C)n2c1 ; what inhibition value has been reported?
-3.29

Which inhibition is reported for this compound? CCCN(CCC)S(=O)(=O)c1ccc(C(=O)N2CC3CCC(CC3)C2)cc1
0.5

Query (compound): CC(=O)N1CCCc2cc(S(=O)(=O)N3CCCC(C(=O)NCc4ccc(Cl)cc4)C3)ccc21 (stereo not drawn) ; field requested: inhibition
29.3

Tell me the measured inhibition of COc1cc(C)c(Cl)cc1S(=O)(=O)n1ccnc1 , please.
-3.46

I'd like to know its inhibition. The compound in question is O=C(N/C(=C\c1ccc(F)cc1)C(=O)N1CCCCCC1)c1ccccc1
-7.9

Name the reported inhibition value associated with the compound CC(C)n1c(=S)[nH]c2cc(C(F)(F)F)ccc21
-2.04

// provenance: PubChem BioAssay AID720596
